Test system: T-47D breast
Test: NCI-60 one-dose screen, 48 h
Conditions: 10 µM unless noted
This is part of a sample that, as a whole, favours compounds with a hit. Of some 83,000 tested, about 20% had one in any assay. The source made the active and inactive calls. Rule for the calls: active = growth percent below 10; inactive = the rest.
The reply should name one outcome from Y (active), N (inactive)

Worked examples, 4 molecules total:
* Cc1ccc(-c2nc3nc(-c4ccc(Br)cc4)nc(N4CCCNCC4)c3o2)cc1 | Y
* Nc1nc(Nc2ccc(F)cc2)nn1C(=O)c1cc(Cl)ccc1Cl | N
* N=C(N)c1ccc(-c2ccc(-c3ccc(F)cc3)s2)nc1 | N
* COc1ccc(/C=N/NC(=O)CN2CCN(c3cc4c(cc3F)c(=O)c(C(=O)O)cn4C3CC3)CC2)cc1O | N

Turning now to a further record.
Please state the recorded outcome for this molecule: COc1c(F)cc(-n2c(C(=O)N3CC(F)C3)cc3cccnc32)cc1F
N

---

System: SF-539 CNS
Assay: NCI-60 one-dose screen, 48 h (100 = growth as untreated, 0 = no growth, -100 = all killed)
Settings: 10 µM unless noted
This is part of a sample that, as a whole, favours compounds with a hit. Of some 83,000 tested, about 20% had one in any assay.
Quick reference for growth among some molecules
Dear colleague, please return just the value in %, with no unit written.

Solved entries:
* Cn1c(=O)c2c(nc(Nc3cc(=O)[nH]c(=O)[nH]3)n2Cc2ccccc2)n(C)c1=O | 94.2
* CCOC(=O)CCCn1c(-c2ccccc2)cc(-c2ccccc2)c(C#N)c1=O | 81.5
* O=C(CCCOc1ccc(Br)cc1)Nc1ncc(Cc2ccc(F)cc2)s1 | 68.3
* FC(F)(F)Sc1ccc(/C=C/c2cc(/C=C/c3ccc(SC(F)(F)F)cc3)n(-c3ccccc3)n2)cc1 | 98.1
* COc1ccc(-c2cc(-c3cccnc3)nc3sc4c(Cl)nnnc4c23)cc1OC | 101

growth value, target or system SF-539 CNS, for CCCCCCCC/C=C\CCCCCCCCOc1ccccc1CC(=O)NCC[N+]1(C)CCOCC1 : 91.3

Item COc1ccc(/C=N/NC(=O)CN2CCN(c3cc4c(cc3F)c(=O)c(C(=O)O)cn4C3CC3)CC2)cc1O ; assay system SF-539 CNS; growth reported as 101

Given the molecule CSc1nnc(-c2cc3c([nH]c4ccccc43)c(-c3cccc(O)c3)n2)n1-c1ccc(C)cc1 and test system SF-539 CNS, the measured growth is 32.3

The measured growth that N#CC(Cc1cccc2ccccc12)c1cc2ccccc2[nH]1 (centres undefined) showed for SF-539 CNS is 102

---

Test system: OVCAR-5 ovarian
Assay: NCI-60 one-dose screen, 48 h
Details: 10 µM unless noted
Method: Growth inhibition of the OVCAR-5 human tumor cell line is measured as a screen for anti-cancer activity. Cells are grown in 96 well plates and exposed to the test compound for 48 hours. Compounds are tested at a single concentration, which is 10^-5 M for most compounds. The reported endpoint is percent growth (GI% or GIPRCNT), where numbers from 0 - 100% represent growth inhibition, and numbers from -100% - 0 represent cell death. For example, a value of 40 represents 60% growth inhibition. […]
The panel holds about 83,000 compounds, 20% with a hit somewhere; the sample as a whole holds those more often. Calls of active or inactive are those of the source. The calls were made as follows: active = growth percent below 10; inactive = the rest.
Your answer must be one of the following: 1 (yes) (active), 0 (no) (inactive)

Some entries whose results are on file:
* Cc1ccc(/C=C/c2c(C(=O)/C=C/c3ccccc3)c(C)nc3ccccc23)cc1 | 1 (yes)
* O=C(Cc1ccc(F)cc1)c1ccccc1 | 0 (no)
* C#CCn1cnc2cnc(Nc3cccc(NC(=O)CCl)c3)nc21 | 0 (no)
* CC(=O)N1N=C(c2ccc(F)cc2)CC1c1sc(N(C)Cc2ccccc2)nc1Cl (stereo not given) | 0 (no)
* COC1/C=C/OC2(C)Oc3c(C)c(O)c4c(O)c(c(C=NOC(c5ccccc5)c5ccccc5)c(O)c4c3C2=O)NC(=O)/C(C)=C/C=C/C(C)C(O)C(C)C(O)C(C)C(OC(C)=O)C1C (stereo not given) | 0 (no)

// param item: O=C(NCc1cccnc1)/C(=C\c1ccc(Br)cc1)S(=O)(=O)c1ccccc1 ; yields the recorded call
1 (yes)

What is the recorded call for this molecule in the test? O=C1CCCCN1CCCCC#Cc1cccc(C#Cc2cccnc2)c1
0 (no)

Dear all, I need the recorded test outcome for CCNC(=O)Oc1ccc(/C(=C(/C)Cc2ccc(OC)cc2)c2ccc(OCCN(CC)CC)cc2)cc1 , thank you.
0 (no)

Tell me the assay call for Cc1ccc2nc3ccccc3c(NCc3ccc(Cl)cc3)c2c1 please.
0 (no)

Field: outcome | Entry: O=C(Nc1ccc(F)cc1)c1cc2cc(Nc3nc(-c4ccccc4)nc4ccccc34)ccc2oc1=O
0 (no)

---

System: PC-3 prostate
Experiment: NCI-60 one-dose screen, 48 h
Conditions: 10 µM unless noted
This is part of a sample that, as a whole, favours compounds with a hit. Of some 83,000 tested, about 20% had one in any assay. Active and inactive are the calls of the source. Rule for the calls: active = growth percent below 10; inactive = the rest.
One label from this list, please: 1 for active, -1 for inactive

* COc1cc(/C=C2/C=C(c3ccc(C(C)(C)C)cc3)N(CCc3ccc(S(N)(=O)=O)cc3)C2=O)cc(OC)c1OC | 1
* c1cc(NCCCCN2CCOCC2)c2ccc3c(ccc4c(NCCN5CCOCC5)ccnc43)c2n1 | -1
* O=C(NCc1ccc(Cn2c(=O)sn(-c3ccc(Cl)cc3)c2=O)cc1)OCc1ccc2c(Cl)cc(Cl)c(O)c2n1 | -1

Each compound tested received a call. Report the one for C#CCOc1cccc(Nc2ncc3ncn(C4CCN(C(=O)CCl)C4)c3n2)c1 (centres undefined) .
-1

---

Test system: 786-0 renal
Experiment: NCI-60 one-dose screen, 48 h
Details: 10 µM unless noted
Compounds without any hit were thinned out: in the full panel of roughly 83,000, 20% have a hit. The source made the active and inactive calls. How the source made its calls: active means growth percent below 10; inactive means the rest.
// one of active, inactive, no free text

- CC1(C)C(N)=Nc2cc(OCCCN3Cc4ccc(OCCc5cn(CC(=O)N6CCC(CCN7CCCC7)CC6)nn5)cc4C3)c(OCC3CC3)cc21: inactive
- CN1C(=O)N(C)C2(c3ccccc3)N(CC(=O)Nc3ccccc3O)C(=O)NC12c1ccccc1 (centres undefined): inactive
- CCOc1ccccc1NC(=O)c1cc2ccccc2cc1O: inactive
- O=C(c1cccc(Br)c1)N1CCN(c2ccnc3cc(Cl)ccc23)CC1: inactive
- Cc1ccc(NC(=O)c2sc3nc(C)c(C(=O)c4ccccc4)cc3c2N)cc1: inactive

Look up the recorded call for N#CSc1c[nH]c2ccc(/C=C/C(=O)/C=C(/C=C/c3ccc4[nH]cc(SC#N)c4c3)OB(F)F)cc12 in this test.
active

Hello, I am checking results. What call was entered for CCCCC1COc2cccc3c2N1C=C/C3=C\C(=O)N(C)c1cccc(Cl)c1 (centres undefined) ?
inactive

Hi, sorry to bother you, what did the test record for O=C(/C=C/c1ccc([N+](=O)[O-])cc1)c1ccccc1 ?
inactive

What did this assay record as the result for COc1cc(/C=C2/C=C(c3ccc(C(C)(C)C)cc3)N(CCc3ccc(S(N)(=O)=O)cc3)C2=O)cc(OC)c1OC ?
inactive

---

Below is a list of entries, each paired with its recorded growth value.
Test system: HOP-92 NSCLC
Test: NCI-60 one-dose screen, 48 h (100 = growth as untreated, 0 = no growth, -100 = all killed)
Details: 100 µM
About 83,000 compounds went through this panel and 20% of them were active in at least one assay; those are over-represented in the sample as a whole.
Expressed in %, but write only the number.

Example entries and their recorded answers appear below.
* CC(=O)/C=C/c1ccc(N(CCO)Cc2ccc(C(C)(C)C)cc2)cc1 | -94.5
* CC(=O)/C=C/c1ccc(OCc2ccc(C(C)(C)C)cc2)cc1 | -14.7
* COc1ccc(C(=O)/C=C/c2ccc(OCc3cccc(C(F)(F)F)c3)c(OC)c2)cc1OC | -17.4

Attention now turns to another entry.
Sure, the documented growth for CC(=O)/C=C/c1ccc(OCc2ccc(Cl)cc2)cc1 is 11

---

# growth listing for each entry below
Test system: RPMI-8226 leukemia
Assay: NCI-60 one-dose screen, 48 h (100 = growth as untreated, 0 = no growth, -100 = all killed)
Conditions: 10 µM unless noted
About 83,000 compounds went through this panel and 20% of them were active in at least one assay; those are over-represented in the sample as a whole. Active and inactive are the calls of the source. The calls were made as follows: active = growth percent below 10; inactive = the rest.

* CCCc1cc(C(N)=S)ccn1 | 120% (inactive)

# value of growth, RPMI-8226 leukemia, item Nc1[nH]nc(Nc2ccccc2)c1-c1nc2ccccc2s1 = 24% (inactive)

Entry S=c1nc(CS)[nH]c2ccccc12 ; assay system RPMI-8226 leukemia; growth recorded at 102% (inactive)

---

Test system: SF-268 CNS
Assay: NCI-60 one-dose screen, 48 h (100 = growth as untreated, 0 = no growth, -100 = all killed)
Conditions: 10 µM unless noted
About 83,000 compounds went through this panel and 20% of them were active in at least one assay; those are over-represented in the sample as a whole.
readout_type: growth (%)
The response must be a number in % with no trailing unit.

• CC[C@@H]1NC(=O)[C@H]([C@H](O)[C@H](C)C/C=C/c2ccc(CN3C(=O)C(C)=C(C)C3=O)cc2)N(C)C(=O)[C@H](C(C)C)N(C)C(=O)[C@H](CC(C)C)N(C)C(=O)[C@H](CC(C)C)N(C)C(=O)[C@@H](C)NC(=O)[C@H](C)NC(=O)[C@H](CC(C)C)N(C)C(=O)[C@H](C(C)C)NC(=O)[C@H](CC(C)C)N(C)C(=O)CN(C)C1=O = 71

Proceeding to the next compound to report its growth.
The recorded growth for entry CCC(=C(c1ccc(OCCCN(C)C)cc1)c1ccc(OCCCN(C)C)cc1)c1ccc(Cl)cc1 equals -78.3
